Target: HLA-A*03:01 (Homo sapiens, UniProt P04439)
Experiment: p-HLA complex stability, scintillation proximity assay of β2-microglobulin dissociation
Assay type: binding
Listing of entries alongside the reported k, Setp #1.
Reply with the value as a number alone.

[
  {
    "construct.sequence": "KLAQRRVFH",
    "assay.system": "HLA-A*03:01 (Homo sapiens, UniProt P04439)",
    "k, Setp #1": 0.2008
  },
  {
    "construct.sequence": "ALNTITNLK",
    "assay.system": "HLA-A*03:01 (Homo sapiens, UniProt P04439)",
    "k, Setp #1": 0.061
  },
  {
    "construct.sequence": "VLWDIPTPK",
    "assay.system": "HLA-A*03:01 (Homo sapiens, UniProt P04439)",
    "k, Setp #1": 0.1534
  }
]

# evaluate next
Ask: Param readout = k, Setp #1; param system = HLA-A*03:01 (Homo sapiens, UniProt P04439); param query = `RVKLSALTLK` ; response: value
Reply: 0.0597

---

Molecular target: HLA-A*11:01 (Homo sapiens, UniProt P04439, A114D/D185E/E176A/F33Y/L180Q/S129P/T187R)
Test: p-HLA complex stability, scintillation proximity assay of β2-microglobulin dissociation
Type: binding
Quick reference for Half_life, Setp #2 among some sequences
Please state the value followed by its unit.

A selection of reference data follows.
[
  {
    "construct.sequence": "VLWDIPTPK",
    "Half_life, Setp #2": "7.5 h"
  },
  {
    "construct.sequence": "KITDFGIAK [HLA-A*11:01 control, Serine/threonine-protein kinase PknA, Mycobacterium tuberculosis, IEDB 109407]",
    "Half_life, Setp #2": "14.6 h"
  },
  {
    "construct.sequence": "TVNPIVTEK [HLA-A*11:01 control, Genome polyprotein, Dengue virus, IEDB 67094]",
    "Half_life, Setp #2": "11 h"
  }
]

Now take the following sequence into account.
Ask: // fetch HLA-A*11:01 (Homo sapiens, UniProt P04439, A114D/D185E/E176A/F33Y/L180Q/S129P/T187R) Half_life, Setp #2 for `ASLPTTIAK`
Reply: 21.1 h

---

Listing of entries alongside the reported k, Setp #1.
Biological target: HLA-A*11:01 (Homo sapiens, UniProt P04439, A114D/D185E/E176A/F33Y/L180Q/S129P/T187R)
Experiment: p-HLA complex stability, scintillation proximity assay of β2-microglobulin dissociation
Type: binding
I only need the number, thanks.

[
  {
    "construct.sequence": "KITDFGIAK [HLA-A*11:01 control, Serine/threonine-protein kinase PknA, Mycobacterium tuberculosis, IEDB 109407]",
    "k, Setp #1": 0.0415
  },
  {
    "construct.sequence": "ASLPTTIAK",
    "k, Setp #1": 0.0291
  },
  {
    "construct.sequence": "VLWDIPTPK",
    "k, Setp #1": 0.0825
  }
]

Please turn your attention to the following entry.
Ask: Missing value: k, Setp #1, HLA-A*11:01 (Homo sapiens, UniProt P04439, A114D/D185E/E176A/F33Y/L180Q/S129P/T187R), entry TVNPIVTEK [HLA-A*11:01 control, Genome polyprotein, Dengue virus, IEDB 67094] . Fill in?
Reply: 0.0587
